# maps each entry to its T/C
System: L1210 leukemia ip in BDF1 mice, survival T/C
Experiment summary: NCI In Vivo Anticancer Drug Screen. Data for tumor model L1210 Leukemia (intraperitoneal) in B6D2F1 (BDF1) mice
Experimental parameters: endpoint: mean survival time; dose: 25.0 mg/kg/injection; schedule: Q04DX002 (ip); vehicle: saline; higher = longer survival
Toxic doses and inconclusive results are not listed.
Experimental endpoint: T/C

[
  {
    "Compound": "CCCCc1cnc(NCCCC(N)C(=O)O)nc1 (stereo not given)",
    "Result": "100 % of control"
  },
  {
    "Compound": "CC1(C(=O)O)COC(=O)N1 (stereo not given)",
    "Result": "96 % of control"
  },
  {
    "Compound": "CC(=O)NCc1cccc[n+]1[O-]",
    "Result": "110 % of control"
  },
  {
    "Compound": "NC(N)=NCCCC(N)C(=O)O (stereo not given)",
    "Result": "97 % of control"
  },
  {
    "Compound": "CC(CCN1CCOCC1)(CN=C(N)N)c1cccc2ccccc12 (stereo not given)",
    "Result": "93 % of control"
  }
]

Reference source for all entries: PubChem BioAssay AID248
